Assign Emax to each entry below.
molecular target: F876L mutant Androgen Receptor (AR-F876L) (Homo sapiens (Human), UniProt P10275, F877L); assay: LNCaP-AR-F876L ANT reporter assay (antagonist mode); type: cell-based; details: maximum % inhibition of R1881 control response over the tested concentration range; read-out: LNCaP-AR-F876L ANT MAX % Inh
Sequence (P10275 whole entry F877L): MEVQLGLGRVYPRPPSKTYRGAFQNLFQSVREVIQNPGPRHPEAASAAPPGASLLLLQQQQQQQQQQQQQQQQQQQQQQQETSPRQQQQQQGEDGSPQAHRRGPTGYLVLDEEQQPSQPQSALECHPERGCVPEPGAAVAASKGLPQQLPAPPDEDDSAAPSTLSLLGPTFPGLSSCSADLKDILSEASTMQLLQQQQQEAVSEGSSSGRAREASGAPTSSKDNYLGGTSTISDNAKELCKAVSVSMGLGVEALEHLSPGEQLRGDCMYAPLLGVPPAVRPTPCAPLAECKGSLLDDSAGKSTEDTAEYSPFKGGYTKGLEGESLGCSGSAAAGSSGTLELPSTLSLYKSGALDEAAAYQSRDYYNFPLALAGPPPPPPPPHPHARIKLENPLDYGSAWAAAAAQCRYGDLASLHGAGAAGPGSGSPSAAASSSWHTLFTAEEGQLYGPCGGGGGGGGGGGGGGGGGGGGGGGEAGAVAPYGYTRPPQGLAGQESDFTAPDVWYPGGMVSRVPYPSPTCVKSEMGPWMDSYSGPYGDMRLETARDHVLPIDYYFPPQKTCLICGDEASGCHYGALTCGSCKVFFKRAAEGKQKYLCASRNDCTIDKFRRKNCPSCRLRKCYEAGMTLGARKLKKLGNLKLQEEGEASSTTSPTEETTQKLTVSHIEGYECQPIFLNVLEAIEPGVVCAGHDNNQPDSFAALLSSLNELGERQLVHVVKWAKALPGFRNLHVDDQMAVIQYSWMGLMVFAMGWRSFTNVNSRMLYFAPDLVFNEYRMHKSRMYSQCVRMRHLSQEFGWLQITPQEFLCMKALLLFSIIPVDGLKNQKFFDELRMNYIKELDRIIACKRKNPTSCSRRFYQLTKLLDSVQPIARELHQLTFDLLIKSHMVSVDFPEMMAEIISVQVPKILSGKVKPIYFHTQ
Give bare numbers, in %.

N#Cc1ncc(N2C(=O)C3(CCC3)N(c3ccc(OC4C5CCC4CNC5)cc3)C2=S)cc1C(F)(F)F (stereo not shown)	100
COCCN1CCC(Oc2ccc(N3C(=S)N(c4cnc(C#N)c(Cl)c4)C(=O)C34CCC4)cn2)CC1	97.1
COCCn1cc2cc(N3C(=S)N(c4cnc(C#N)c(C(F)(F)F)c4)C(=O)C34CCC4)ccc2n1	100
CN1CCC(Oc2ccc(N3C(=S)N(c4cnc(C#N)c(C(F)(F)F)c4)C(=O)C34CCC4)cc2)CC12CCC2 (racemic)	102
N#Cc1ncc(N2C(=O)C3(CCC3)N(c3ccc(C4CC5CCC(C4)N5)cc3)C2=S)cc1C(F)(F)F (stereo not shown)	102

Batch lookup, Emax per entry.
1. N#CCN1CCC(Oc2ccc(N3C(=S)N(c4cnc(C#N)c(Cl)c4)C(=O)C34CCC4)cc2)CC1
2. CCOC(=O)N1CCN(c2ccc(N3C(=S)N(c4cnc(C#N)c(C(F)(F)F)c4)C(=O)C34CCC4)cc2)CC1
3. COCCN1CCC(Oc2ccc(N3C(=S)N(c4cnc(C#N)c(C)c4)C(=O)C34CCC4)cn2)CC1
4. Cc1cc(N2C(=O)C3(CCC3)N(c3ccc(N4CCNC4=O)cc3)C2=S)cnc1C#N
5. Cc1cc(N2C(=O)C3(CCC3)N(c3ccc(-c4cnn(C(N)=O)c4)cc3)C2=S)cnc1C#N

### Response
101
98.1
100
98.4
98.2

Batch lookup, Emax per entry.
1. N#Cc1ncc(N2C(=O)C3(CCC3)N(c3ccc(OC4C5CCC4CNC5)nc3)C2=S)cc1C(F)(F)F (stereo not shown)
2. N#Cc1ncc(N2C(=O)C3(CCC3)N(c3ccc(OC4CCNCC4)nc3)C2=S)cc1Cl
3. N#Cc1ncc(N2C(=O)C3(CCC3)N(c3ccc(C4=CC5CCC(C4)N5)cc3)C2=S)cc1C(F)(F)F (stereo not shown)
4. CC(C)(C)OC(=O)N1CC(F)(F)CC1COc1ccc(N2C(=S)N(c3cnc(C#N)c(C(F)(F)F)c3)C(=O)C23CCC3)cc1 (stereo not shown)

### Response
1: 99.8; 2: 100; 3: 102; 4: 85.2

Batch lookup, Emax per entry.
1. CC(C)(C)OC(=O)N1CCC(CNC(=O)c2ccc(N3C(=S)N(c4cnc(C#N)c(C(F)(F)F)c4)C(=O)C34CCC4)cc2)CC1
2. CC(C)(C)OC(=O)NC1C(C)(C)C(Oc2ccc(N3C(=S)N(c4cnc(C#N)c(C(F)(F)F)c4)C(=O)C34CCC4)cc2)C1(C)C (stereo not shown)
3. N#Cc1ncc(N2C(=O)C3(CCC3)N(c3ccc(O[C@H]4C[C@H]5CC[C@@H](C4)N5)cc3)C2=S)cc1C(F)(F)F
4. N#Cc1ncc(N2C(=O)C3(CCC3)N(c3ccc4c(cnn4C4CCNCC4)c3)C2=S)cc1Cl
5. CN1CC2CCC(C1)C2Oc1ccc(N2C(=S)N(c3cnc(C#N)c(C(F)(F)F)c3)C(=O)C23CCC3)cn1 (stereo not shown)

### Response
1: 97.6; 2: 100; 3: 101; 4: 102; 5: 101

###

Assign Emax to each entry below.
molecular target: F876L mutant Androgen Receptor (AR-F876L) (Homo sapiens (Human), UniProt P10275, F877L); test: LNCaP-AR-F876L ANT reporter assay (antagonist mode); type: cell-based; conditions: antagonist mode; maximum % inhibition of R1881 control response over tested concentration range; read-out: LNCaP-AR-F876L ANT MAX % Inh
One number for each entry, in %.

Worked examples, 4 compounds total:
N#Cc1ncc(N2C(=O)C3(CCC3)N(c3ccc(C4CNCCO4)cc3)C2=S)cc1C(F)(F)F (centres unmarked) [Cpd 243]	100
N#Cc1ncc(N2C(=O)C3(CCC3)N(c3ccc(CN4CCN(C5CC5)CC4)cc3)C2=S)cc1C(F)(F)F [Cpd 220]	101
Cc1cc(N2C(=O)C3(CCC3)N(c3ccc(CC4CCNCC4)cc3)C2=S)cnc1C#N [Cpd 235]	101
COc1cc(N2C(=O)C3(CCC3)N(c3ccc(CC4CCN(C)CC4)cc3)C2=S)cnc1C#N [Cpd 239]	102

### Prompt So what's the measured Emax for this one? CN1CC[C@@H](CNC(=O)c2ccc(N3C(=S)N(c4cnc(C#N)c(C(F)(F)F)c4)C(=O)C34CCC4)cc2)C1 [Cpd 187]
### Response 101

###

Assign Emax to each entry below.
molecular target: wild-type Androgen Receptor (AR-wt) (Homo sapiens (Human)); assay: LNCaP-AR-wt AG reporter assay (agonist mode); assay type: cell-based; details: maximum % stimulation (agonist response) over the tested concentration range; read-out: LNCaP-AR-wt AG MAX % Stim
Sequence (P10275 whole entry): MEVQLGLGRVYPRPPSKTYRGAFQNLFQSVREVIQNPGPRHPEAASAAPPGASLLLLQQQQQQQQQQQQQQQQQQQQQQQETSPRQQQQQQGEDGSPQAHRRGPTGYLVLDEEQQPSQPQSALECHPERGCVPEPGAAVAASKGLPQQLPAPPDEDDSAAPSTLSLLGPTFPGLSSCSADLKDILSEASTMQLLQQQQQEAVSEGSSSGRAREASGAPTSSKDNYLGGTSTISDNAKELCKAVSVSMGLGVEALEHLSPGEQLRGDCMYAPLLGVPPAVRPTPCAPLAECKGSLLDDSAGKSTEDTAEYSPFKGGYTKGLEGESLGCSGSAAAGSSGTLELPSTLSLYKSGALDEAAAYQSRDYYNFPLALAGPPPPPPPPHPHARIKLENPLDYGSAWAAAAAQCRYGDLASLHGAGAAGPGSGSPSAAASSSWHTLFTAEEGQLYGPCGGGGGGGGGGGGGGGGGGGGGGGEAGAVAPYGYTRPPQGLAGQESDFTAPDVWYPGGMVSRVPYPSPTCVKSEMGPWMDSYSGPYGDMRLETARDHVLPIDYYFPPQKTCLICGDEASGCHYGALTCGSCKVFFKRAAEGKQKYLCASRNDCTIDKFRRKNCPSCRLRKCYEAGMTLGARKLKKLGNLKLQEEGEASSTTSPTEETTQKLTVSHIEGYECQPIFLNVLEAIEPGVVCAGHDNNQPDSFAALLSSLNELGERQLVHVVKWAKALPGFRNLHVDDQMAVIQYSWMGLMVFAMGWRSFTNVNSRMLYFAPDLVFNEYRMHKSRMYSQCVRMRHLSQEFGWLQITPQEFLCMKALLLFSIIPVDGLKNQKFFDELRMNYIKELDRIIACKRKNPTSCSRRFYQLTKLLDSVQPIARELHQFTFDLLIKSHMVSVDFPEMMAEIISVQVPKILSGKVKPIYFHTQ
One number for each entry, in %.

Worked examples, 4 molecules total:
CC(C)(C)OC(=O)N1CC(F)(F)CC1COc1ccc(N2C(=S)N(c3cnc(C#N)c(C(F)(F)F)c3)C(=O)C23CCC3)cc1 (centres unmarked) [Cpd 56]	0.4
C[C@@H]1OC(c2ccc(N3C(=S)N(c4cnc(C#N)c(C(F)(F)F)c4)C(=O)C34CCC4)cc2)=C[C@H](O)[C@H]1O [Cpd 135]	0.1
N#CCN1CCC(Oc2ccc(N3C(=S)N(c4cnc(C#N)c(C(F)(F)F)c4)C(=O)C34CCC4)cn2)CC1 [Cpd 60]	0.8
N#Cc1ncc(N2C(=O)C3(CCC3)N(c3ccc(C4CC5CCC(C4)N5)cc3)C2=S)cc1C(F)(F)F (centres unmarked) [Cpd 123]	0.3

### Prompt So what's the measured Emax for this one? CN1CCC(Oc2ccc(N3C(=S)N(c4cnc(C#N)c(Cl)c4)C(=O)C34CCC4)cn2)CC1 [Cpd 26]
### Response 0.4

###

molecular target: wild-type Androgen Receptor (AR-wt) (Homo sapiens (Human)); test: LNCaP-AR-wt ANT reporter assay (antagonist mode); type: cell-based; settings: antagonist mode; pIC50 = −Log10(IC50 in Molar); read-out: LNCaP-AR-wt ANT pIC50 (converted)
Would you mind classing the entries by IC50? Ranges: class A = under 300 nM, class B = from 300 nM up to 1000 nM, class C = 1000 nM and over

### Prompt Which bin, given its IC50, does N#Cc1ncc(N2C(=O)C3(CCC3)N(c3ccc(C4CNCCO4)cc3)C2=S)cc1C(F)(F)F (centres unmarked) [Cpd 243] occupy?
### Response class C

### Prompt Note, next up: CN1CCC(C)(Oc2ccc(N3C(=S)N(c4cnc(C#N)c(C(F)(F)F)c4)C(=O)C34CCC4)cn2)CC1 [Cpd 210]
### Response class C

### Prompt Note, next up: CN1CCc2cc(N3C(=S)N(c4cnc(C#N)c(C(F)(F)F)c4)C(=O)C34CCC4)ccc2C1 [Cpd 125]
### Response class C

### Prompt Note, next up: Cc1cc(N2C(=O)C3(CCC3)N(c3cnc(OC4CCNCC4)nc3)C2=S)cnc1C#N [Cpd 246]
### Response class C

### Prompt Note, next up: Cc1cc(N2C(=O)C3(CCC3)N(c3ccc(-c4cn[nH]c4)cc3)C2=S)cnc1C#N [Cpd 3]
### Response class B

### Prompt Note, next up: Cc1cc(N2C(=O)C3(CCC3)N(c3ccc(OC4CCSCC4)nc3)C2=S)cnc1C#N [Cpd 21]
### Response class B

### Prompt Note, next up: CCOC(=O)N1CCN(c2ccc(N3C(=S)N(c4cnc(C#N)c(C(F)(F)F)c4)C(=O)C34CCC4)cc2)CC1 [Cpd 58]
### Response class A

### Prompt Note, next up: CN1CC[C@@H](Oc2ccc(N3C(=S)N(c4cnc(C#N)c(C(F)(F)F)c4)C(=O)C34CCC4)cc2)C[C@H]1C(F)(F)F (racemic) [Cpd 158]
### Response class B

### Prompt Note, next up: Cn1ncc2cc(N3C(=S)N(c4cnc(C#N)c(Cl)c4)C(=O)C34CCC4)ccc21 [Cpd 168]
### Response class A

### Prompt Note, next up: N#Cc1ncc(N2C(=O)C3(CCC3)N(c3ccc(CN4CCC(N)CC4)cc3)C2=S)cc1C(F)(F)F [Cpd 224]
### Response class C

### Prompt Note, next up: N#Cc1ncc(N2C(=O)C3(CCC3)N(c3ccc(OC4CCN(C5CC5)CC4)cc3)C2=S)cc1C(F)(F)F [Cpd 36]
### Response class B

### Prompt Note, next up: N#Cc1ncc(N2C(=O)C3(CCC3)N(c3ccc4c(ccn4C4CCNCC4)c3)C2=S)cc1C(F)(F)F [Cpd 249]
### Response class B

### Prompt Note, next up: Cc1cc(N2C(=O)C3(CCC3)N(c3ccc(OC4CCN(C5CC5)CC4)cc3)C2=S)cnc1C#N [Cpd 35]
### Response class B

### Prompt Note, next up: N#Cc1ncc(N2C(=O)C3(CCC3)N(c3ccc(C(=O)NC[C@@H]4CCCNC4)cc3)C2=S)cc1C(F)(F)F [Cpd 186]
### Response class C

### Prompt Note, next up: N#Cc1ncc(N2C(=O)C3(CCC3)N(c3ccc(OC4CCNC5(CCC5)C4)nc3)C2=S)cc1C(F)(F)F (racemic) [Cpd 188]
### Response class A

// data source = patent US10981926B2
